Measured values drawn from the supplement of paper PMC6089552 for this set.

tested on: A673/TR/shEF; assay: cell viability (LOESS-normalised, relative to median of negative controls) (log2 ratio); higher = more viable cells (less compound effect), active = hit call of the paper (over 3 MAD below the median); details: 0.25 µM; library screen: screen1; EWS-FLI1 expression: low (doxycycline-induced shRNA knockdown); treatment time: 72 h
The whole screen tested about 3,200 compounds, of which about 300 (9.4%) showed activity. This is one part of a sample in which actives are shown more often than they occur.
Could you mark each record 1 if its cell viability (log2) falls strictly under 0.02, and -1 if it equals or exceeds it?

Ask: Lab note: confirm whether the reported cell viability (log2) for this molecule is below 0.02, equality not counting. molecule: ClC1=C(Cl)[C@]2(Cl)[C@@H]3[C@@H]4C[C@@H]([C@H]5O[C@@H]45)[C@@H]3[C@@]1(Cl)C2(Cl)Cl
Result: -1

Ask: Cc1ccccc1O ?
Result: -1

Ask: Try the molecule c1ccc2c(c1)[nH]c1cnccc12
Result: 1

Ask: Here is the next molecule: Clc1ccc(C(c2ccc(Cl)cc2)C(Cl)(Cl)Cl)cc1
Result: -1

Ask: Try the molecule Cc1nccc2c1[nH]c1ccccc12
Result: 1

Ask: Now the same for CC(=O)O[C@H]1C[C@@H](OC(C)=O)C(C)(C)C2C[C@@H](OC(C)=O)[C@]3(C)C(CC[C@@]4(C)[C@H](c5ccoc5)C(=O)[C@H]5O[C@]543)[C@]21C (some centres not stated)
Result: -1

Ask: Same again, this time with CCCCN(CC)c1c([N+](=O)[O-])cc(C(F)(F)F)cc1[N+](=O)[O-]
Result: -1
